# assay-overview: ATG_PPRE_CIS: Attagene CIS-FACTORIAL HepG2 Assay for human Peroxisome Proliferator-activated Response Element (PPRE) (AID 2282958)
# study-conditions: HepG2 PPRE cis-element reporter, Attagene transcription factor profiling; actives raise or lower the signal
Calls of active or inactive are those of the source. How the source made its calls: active means hit-call score of the fitted dose curve at least 0.9, where 1 is the maximum; inactive means score below 0.9.
Return exactly one item of active, inactive

Take a look at these entries with their results.
CCC(C)(C#N)N=NC(C)(C#N)CC (stereo unspecified)    inactive
Cc1cc(Cl)ccc1O    inactive
N#CS    inactive
O=C/C(Cl)=C(/Cl)C(=O)O    inactive

Assay outcome for "Cc1cc(-c2cc(C)c(N)c(C)c2)cc(C)c1N" : what was it?
inactive

Assay outcome for "CCOP(=S)(OCC)SCSc1cc(Cl)ccc1Cl" : what was it?
inactive

Assay outcome for "O=C(O)COc1cc(Cl)c(Cl)cc1Cl" : what was it?
active

Assay outcome for "CC(=Cc1ccccc1)[N+](=O)[O-]" : what was it?
inactive

Assay outcome for CC(C)[C@H](C(=O)OC(C#N)c1cccc(Oc2ccccc2)c1)c1ccc(OC(F)F)cc1 (stereo partly specified) : what was it?
inactive

Assay outcome for "CS(=O)(=O)c1ccc(C(=O)C2C(=O)CCCC2=O)c(Cl)c1COCC(F)(F)F" : what was it?
inactive

Assay outcome for "CC(C)(C)c1ccccc1O" : what was it?
inactive

Assay outcome for "O=C(N[C@H]1CN2CCC1CC2)c1ccc2c(c1)OCCO2" : what was it?
active

Assay outcome for "C=CCN=C=S" : what was it?
inactive

Assay outcome for "CN(C1CCCCC1)C1CCCCC1" : what was it?
inactive

Assay outcome for "O=C(Nc1ccc(Br)cc1)c1cc(Br)cc(Br)c1O" : what was it?
active

Assay outcome for CCCCC(CC)C(=O)Cl (stereo unspecified) : what was it?
inactive

* * *

# assay-overview: ATG_RORE_CIS: Attagene CIS-FACTORIAL HepG2 Assay for human RAR-related Orphan Receptor Element (RORE) (AID 2282959)
# study-conditions: HepG2 Attagene cis-factorial RORE reporter, mRNA; actives raise or lower the signal
# Method: ATG_CIS is a cell-based, multiplexed-readout assay that uses HepG2, a human liver cell line, with measurements taken at 24 hours after chemical dosing in a 24-well plate.ATG_RORE_CIS is one of 52 assay component(s) measured or calculated from the ATG_CIS assay. […] This assay endpoint, ATG_RORE_CIS, was analyzed with bidirectional fitting relative to DMSO as the negative control and baseline of activity. […]
The source made the active and inactive calls. The calls were made as follows: active = hit-call score of the fitted dose curve at least 0.9, where 1 is the maximum; inactive = score below 0.9.
Return exactly one item of YES for active, NO for inactive

C#CCO    NO
ClCc1ccccc1CCl    NO
O=C(NC(=O)c1c(F)cccc1F)Nc1cc(Cl)c(OC(F)(F)C(F)C(F)(F)F)cc1Cl (centres undefined)    NO

Let us examine a further case.
Assay outcome for "CCOCn1c(-c2ccc(Cl)cc2)c(C#N)c(Br)c1C(F)(F)F" : what was it?
YES

* * *

# Read-out: Monocyte Chemoattractant Protein-1 (MCP1), CCL2 (gene 6347)
# assay-overview: BSK_SAg_MCP1: BioMAP Diversity Plus: SAg Assay for Monocyte Chemoattractant Protein-1 (MCP1) Biomarker Activity (AID 2283090)
# study-conditions: primary human HUVEC with PBMC; actives raise or lower the signal
Calls of active or inactive are those of the source. Rule for the calls: active = hit-call score of the fitted dose curve at least 0.9, where 1 is the maximum; inactive = score below 0.9.
Return exactly one item of active, inactive

Take a look at these entries with their results.
O=C1C=CC(=O)c2ccccc21    active
Nc1ccc(N)cc1    inactive
Nc1c(Oc2ccccc2)cc(O)c2c1C(=O)c1ccccc1C2=O    active

Assay outcome for "CCOP(=S)(OCC)SCS(=O)(=O)C(C)(C)C" : what was it?
inactive

* * *

# Read-out: Intercellular Adhesion Molecule 1 (ICAM1), ICAM1 (gene 3383)
# assay-overview: BSK_3C_ICAM1: BioMAP Diversity Plus: 3C Assay for Intercellular Adhesion Molecule 1 (ICAM1) Biomarker Activity (AID 2283003)
# study-conditions: primary human endothelial cells (HUVEC); actives raise or lower the signal
Calls of active or inactive are those of the source. How the source made its calls: active means hit-call score of the fitted dose curve at least 0.9, where 1 is the maximum; inactive means score below 0.9.
Return exactly one item of active, inactive

Take a look at these entries with their results.
Cc1cccc(OP(=O)(Oc2cccc(C)c2)Oc2cccc(C)c2)c1    inactive
CCOC(=O)CCN(SN(C)C(=O)Oc1cccc2c1OC(C)(C)C2)C(C)C    inactive

Let us examine a further case.
Assay outcome for "O=[N+]([O-])c1ccc(Nc2ccccc2)cc1" : what was it?
inactive

* * *

# assay-overview: ATG_VDRE_CIS: Attagene CIS-FACTORIAL HepG2 Assay for human Vitamin D Receptor Element (VDRE) (AID 2282968)
# study-conditions: HepG2 VDRE cis-reporter transcription, actives raise or lower the signal
Activity calls are given as the source filed them. How the source made its calls: active means hit-call score of the fitted dose curve at least 0.9, where 1 is the maximum; inactive means score below 0.9.
Return exactly one item of active, inactive

Take a look at these entries with their results.
Cc1cccc(N=Nc2ccc(N(C)C)cc2)c1    active
O=[N+]([O-])c1c2ccccc2cc2ccccc12    inactive
Nc1ccc(N)cc1    inactive
C#CCO    inactive
CC(=Cc1ccccc1)[N+](=O)[O-]    inactive

Assay outcome for "Nc1nc(=S)[nH][nH]1" : what was it?
inactive

Assay outcome for "O=C(O)C1(c2ccc3c(c2)OC[C@H](Cc2ccc(-c4ccccc4)cc2)[C@H]3O)CCCC1" : what was it?
inactive

Assay outcome for "Cc1ccc(OP(=O)(Oc2ccc(C)cc2C)Oc2ccc(C)cc2C)c(C)c1" : what was it?
active

Assay outcome for "OCC(c1ccc(Cl)cc1)c1ccc(Cl)cc1" : what was it?
inactive

* * *

# Read-out: Tissue Factor, F3 (gene 2152)
# assay-overview: BSK_LPS_TissueFactor: BioMAP Diversity Plus: LPS Assay for Tissue Factor Biomarker Activity (AID 2283084)
# study-conditions: primary human HUVEC with PBMC; actives raise or lower the signal
Activity calls are given as the source filed them. How the source made its calls: active means hit-call score of the fitted dose curve at least 0.9, where 1 is the maximum; inactive means score below 0.9.
Return exactly one item of active, inactive

CC(C)(C)c1ccccc1O    inactive
NC(=O)CCl    inactive
Cc1ccccc1OP(=O)(Oc1ccccc1C)Oc1ccccc1C    active
O=S(=O)(C(Cl)(Cl)Cl)C(Cl)(Cl)Cl    active
OC(Cc1ccccc1Cl)(Cn1cncn1)C1(Cl)CC1 (configuration not stated)    inactive

Assay outcome for "Cc1ccc(OP(=O)(Oc2ccc(C)cc2C)Oc2ccc(C)cc2C)c(C)c1" : what was it?
inactive

Assay outcome for "c1ccc(-c2cccc(-c3ccccc3)c2)cc1" : what was it?
active

Assay outcome for "CC(C)N(C(=O)CCl)c1ccccc1" : what was it?
inactive

Assay outcome for CCC(C)(C#N)N=NC(C)(C#N)CC (configuration not stated) : what was it?
inactive

Assay outcome for "CCOP(=S)(OCC)OP(=S)(OCC)OCC" : what was it?
inactive

* * *

# Read-out: Monocyte Chemoattractant Protein-1 (MCP1), CCL2 (gene 6347)
# assay-overview: BSK_LPS_MCP1: BioMAP Diversity Plus: LPS Assay for Monocyte Chemoattractant Protein-1 (MCP1) Biomarker Activity (AID 2283081)
# study-conditions: primary human HUVEC with PBMC; actives raise or lower the signal
The source made the active and inactive calls. The calls were made as follows: active = hit-call score of the fitted dose curve at least 0.9, where 1 is the maximum; inactive = score below 0.9.
Return exactly one item of true for active, false for inactive

COc1ccccc1N    false
CCCCN(CCCC)C(=S)[S-].CCCCN(CCCC)C(=S)[S-].[Ni+2]    false
CC(C)O.CC(C)O.OCCN(CCO)CCO.OCCN(CCO)CCO.[Ti]    false

Assay outcome for OC(Cc1ccccc1Cl)(Cn1[nH]cnc1=S)C1(Cl)CC1 (configuration not stated) : what was it?
true

Assay outcome for "Cc1ccccc1OP(=O)(Oc1ccccc1C)Oc1ccccc1C" : what was it?
true

Assay outcome for O=c1oc2ccccc2c(O)c1C(CC(O)c1ccc(-c2ccc(Br)cc2)cc1)c1ccccc1 (configuration not stated) : what was it?
true

Assay outcome for "COCC(=O)N(c1c(C)cccc1C)[C@H](C)C(=O)OC" : what was it?
false

* * *

# system-under-test: Myc proto-oncogene protein (Homo sapiens)
# assay-overview: ATG_Myc_CIS: Attagene CIS-FACTORIAL HepG2 Assay for human Myelocytomatosis (Myc) Proto-Oncogene Transcription Factor (AID 2282990)
# study-conditions: HepG2, Attagene cis-reporter transcription factor activity; actives raise or lower the signal
Calls of active or inactive are those of the source. Rule for the calls: active = hit-call score of the fitted dose curve at least 0.9, where 1 is the maximum; inactive = score below 0.9.
Return exactly one item of 1 for active, -1 for inactive

Take a look at these entries with their results.
CCN(CCO)CCO    -1
[Cl][Sn]([c]1ccccc1)([c]1ccccc1)[c]1ccccc1    1
Cc1ccccc1OP(=O)(Oc1ccccc1C)Oc1ccccc1C    -1
O=[N+]([O-])c1c2ccccc2cc2ccccc12    -1
C=C(C)C(=O)OCCCCOC(=O)C(=C)C    -1
ClCCCCl    -1
Cc1ccccc1OP(=O)(Oc1ccccc1)Oc1ccccc1    -1

Let us examine a further case.
Assay outcome for "Cc1ccc(CCl)cc1" : what was it?
-1

* * *

# Read-out: Monocyte Chemoattractant Protein-1 (MCP1), CCL2 (gene 6347)
# assay-overview: BSK_CASM3C_MCP1: BioMAP Diversity Plus: CASM3C Assay for Monocyte Chemoattractant Protein-1 (MCP1) Biomarker Activity (AID 2283046);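 further: MCP-1 level quantified by ELISA 24 h after dosing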
# study-conditions: primary human coronary artery smooth muscle cells; actives raise or lower the signal
The source made the active and inactive calls. The calls were made as follows: active = hit-call score of the fitted dose curve at least 0.9, where 1 is the maximum; inactive = score below 0.9.
Return exactly one item of active, inactive

Take a look at these entries with their results.
OC(Cc1ccccc1Cl)(Cn1[nH]cnc1=S)C1(Cl)CC1 (stereo not given)    inactive
O=[N+]([O-])c1cccc2ccccc12    inactive

Assay outcome for "Cc1ccccc1OP(=O)(Oc1ccccc1C)Oc1ccccc1C" : what was it?
active

Assay outcome for "COc1ccccc1N" : what was it?
inactive

Assay outcome for "CCN(CC)C(=O)C(Cl)=C(C)OP(=O)(OC)OC" : what was it?
inactive

Assay outcome for "Cc1ccc(OP(=O)(Oc2ccc(C)cc2C)Oc2ccc(C)cc2C)c(C)c1" : what was it?
inactive

Assay outcome for "C[C@]12CC[C@@H](O)C[C@@H]1CC[C@@H]1[C@@H]2CC[C@]2(C)C(=O)CC[C@@H]12" : what was it?
inactive

Assay outcome for "CC(C)O.CC(C)O.OCCN(CCO)CCO.OCCN(CCO)CCO.[Ti]" : what was it?
inactive

Assay outcome for "CCOP(=O)(OCC)SCCSCC" : what was it?
inactive

Assay outcome for "Oc1c(Cl)cc(Cl)cc1Cl" : what was it?
inactive
